B1: PLK2 (parent)
chain: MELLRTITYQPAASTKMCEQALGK

Variants of: B1
PROTOCOL_NOTES: protein stability index of a GFP-peptide fusion (GPS, HEK-293T) (PSI 1-6); higher = more stable;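 note: lentivirally expressed fusions sorted by FACS into six bins by GFP to DsRed ratio, PSI derived from sequencing read proportions per bin multiplied by bin number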
SETUP_CONDITIONS: c terminus: a fixed tail appended
Each entry below carries its reported protein stability index.

MUTATION_CODE | protein stability index
P11I | 2.82
L3N | 1.88
A12S | 1.56
M17H | 2.26
L22M | 1.57
T8M | 1.96
K24D | 2.73
M17R | 2.68
E19S | 1.38
G23M | 2.28
E2D | 2.75
C18Y | 1.01
Q10L | 2.49
L22N | 2.31
T15P | 1.58
A21F | 1.94
K16E | 2.18
C18I | 2.49
L3H | 1.62
Q10G | 3.21
L22K | 1.66
R5K | 3.52
A12W | 1.79
E19H | 2.09
